Test: chemical genetic growth profiling, strain panel (AID 1159580);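 also: tested at 20 µM; growth read once vehicle control cultures reached saturation at 30 °C; 1 = growth at the plate median or of vehicle wells; lower values mean less growth of the strain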
Assay conditions: S. cerevisiae deletion strains, growth OD, locus YGR078C, strain PAC10, stronger effect = lower value
The whole screen tested about 5,500 compounds, of which about 2,000 (36%) were called active. Not shown: some 18% with an inconclusive outcome. The list shows a part of the results.
Item-by-item account of normalized growth

# Compound, normalized growth
records = [
    ("CN(C)CCN(Cc1cccs1)c1ccccn1", 1.01),
    ("O=C(OCC(O)CO)c1ccccc1Nc1ccnc2cc(Cl)ccc12 (stereo not given)", 0.962),
    ("Cc1oc(C(C)(C)C)cc1C(=O)Nc1ccc([N+](=O)[O-])cc1", 0.98),
    ("CNC(=O)[C@H]1O[C@@H](n2cnc3c(NCc4cccc(I)c4)ncnc32)C(O)[C@H]1O (stereo not given in full)", 1.01),
    ("O=C(O)/C=C/c1ccc(O)c(O)c1", 1),
    ("COc1cc([C@@H]2c3cc4c(cc3C(OC3O[C@@H]5COC(C)O[C@H]5[C@H](O)[C@H]3O)C3COC(=O)[C@@H]32)OCO4)cc(OC)c1O (stereo not given in full)", 1.01),
    ("CN1C2C[C@H](OC(=O)[C@H](CO)c3ccccc3)C[C@H]1[C@@H](O)C2", 1.01),
    ("CN1C2CCC1CC(OC(c1ccccc1)c1ccccc1N)C2 (stereo not given)", 1.01),
    ("COC(=O)c1ccc2c(c1)N(C)S(=O)(=O)CC2=O", 1),
    ("COc1ccc(CN(CCN(C)C)c2ccccn2)cc1", 0.983),
]
